meta.source: patent US12161650B2

- procedure text: Phase 1 clinical trial, Part I single ascending doses, plasma pharmacokinetics
- Type: in vivo, human (healthy male volunteers)
- test settings: male, human, plasma; single oral dose 160 mg (Treatment C, n = 6), Day 1, geom. mean
quantity kind: AUC(0-t) (µg·h/mL)
Give just the numeric value; µg·h/mL need not be written.

Task: Supply measured AUC(0-t) of COc1ccc2c(c1)CN(Cc1ccc(C(=O)O)cc1)CCS2.O=C(O)/C=C/C(=O)O in your reply.
Output: 304

----------
- procedure text: Phase 1 clinical trial, Part II multiple ascending doses over 14 days, plasma pharmacokinetics
- Type: in vivo, human (healthy male volunteers)
- test settings: male, human, plasma, oral, 20 mg, 20 mg once daily, Day 14, geom. mean
quantity kind: Cmax (µg/mL)
Field: numeric (µg/mL). Do not append units.

Task: Tell me its Cmax given COc1ccc2c(c1)CN(Cc1ccc(C(=O)O)cc1)CCS2.O=C(O)/C=C/C(=O)O as the entry.
Output: 3.11

----------
- procedure text: Phase 1b study in RYR1-Related Myopathy patients, plasma pharmacokinetics
- Assay type: in vivo, human (RYR1-Related Myopathy patients)
- test settings: human, plasma, po, 200 mg, single oral 200 mg, three subjects, time 8 hr
- Protocol: A Phase 1b study is performed in RYR1-Related Myopathy (RYR1-RM) affected individuals. Compound I was administered in a gastro-resistant tablet according to Example 3 at daily doses. The formulation comprised 20 mg Compound I (based on the mass of 4-[(7-methoxy-2,3-dihydro-1,4-benzothiazepin-4(5H)yl)methyl]benzoic acid). The first three participants were dosed with 120 mg of Compound I (6×20 mg tablets) daily for approximately 28 days. […]
quantity kind: concentration at 8 h (ng/mL)
The figure you give is taken to be in ng/mL; do not add the unit.

Task: Return concentration at 8 h for the following compound: COc1ccc2c(c1)CN(Cc1ccc(C(=O)O)cc1)CCS2.O=C(O)/C=C/C(=O)O
Output: 13400

----------
- procedure text: Phase 1 clinical trial, Part II multiple ascending doses over 14 days, plasma pharmacokinetics
- Assay type: in vivo, human (healthy male volunteers)
- test settings: male, human, plasma, oral; 20 mg once daily (Treatment I), Day 1, geom. mean, n = 7; read-out: AUC0-24
quantity kind: AUC(0-t) (ng·h/mL)
# unit: ng·h/mL | format: bare number

Task: Item COc1ccc2c(c1)CN(Cc1ccc(C(=O)O)cc1)CCS2.O=C(O)/C=C/C(=O)O : provide AUC(0-t)
Output: 24300

----------
- procedure text: Phase 1b study in RYR1-Related Myopathy patients, plasma pharmacokinetics
- Assay type: in vivo, human (RYR1-Related Myopathy patients)
- test settings: human, plasma, po, 120 mg, single oral 120 mg, Day 1, three subjects, arithmetic mean; read-out: Tmax
quantity kind: Tmax (h)
Value expressed in h; do not type the unit.

Task: Answer with the recorded Tmax for the compound listed here: COc1ccc2c(c1)CN(Cc1ccc(C(=O)O)cc1)CCS2.O=C(O)/C=C/C(=O)O
Output: 3

----------
- procedure text: Phase 1b study in RYR1-Related Myopathy patients, plasma pharmacokinetics
- Assay type: in vivo, human (RYR1-Related Myopathy patients)
- test settings: human, plasma, po, 120 mg, single oral 120 mg, Day 1; read-out: Cmax, individual values
quantity kind: Cmax

Task: Assign Cmax to the following record: COc1ccc2c(c1)CN(Cc1ccc(C(=O)O)cc1)CCS2.O=C(O)/C=C/C(=O)O
Output: 11100 to 16300 ng/mL

----------
- procedure text: Phase 1b study in RYR1-Related Myopathy patients, plasma pharmacokinetics
- Assay type: in vivo, human (RYR1-Related Myopathy patients)
- test settings: human, plasma, po, 120 mg, single oral 120 mg, Day 1, three subjects, Median; read-out: t½ (converted)
quantity kind: half-life (h)
Numeric only. Scale: h

Task: Quote half-life reported for COc1ccc2c(c1)CN(Cc1ccc(C(=O)O)cc1)CCS2.O=C(O)/C=C/C(=O)O please.
Output: 14.4

----------
- procedure text: Phase 1b study in RYR1-Related Myopathy patients, plasma pharmacokinetics
- Type: in vivo, human (RYR1-Related Myopathy patients)
- test settings: human, plasma, po, 120 mg, single oral 120 mg, Day 1, three subjects, geometric mean; read-out: AUC0-t
quantity kind: AUC(0-t) (µg·h/mL)
Give a bare numeral; the unit µg·h/mL is implied.

Task: Determine from records and report AUC(0-t) for COc1ccc2c(c1)CN(Cc1ccc(C(=O)O)cc1)CCS2.O=C(O)/C=C/C(=O)O
Output: 171

----------
- procedure text: Phase 1 clinical trial, Part II multiple ascending doses over 14 days, plasma pharmacokinetics
- Format: in vivo, human (healthy male volunteers)
- test settings: male, human, plasma, oral, 240 mg, 240 mg once daily, Day 14, median; read-out: tmax
quantity kind: Tmax (h)
Express the result in h but write the number alone.

Task: Find the measured Tmax of COc1ccc2c(c1)CN(Cc1ccc(C(=O)O)cc1)CCS2.O=C(O)/C=C/C(=O)O and report it.
Output: 3

----------
- procedure text: Phase 1 clinical trial, Part II multiple ascending doses over 14 days, plasma pharmacokinetics
- Format: in vivo, human (healthy male volunteers)
- test settings: male, human, plasma, oral, 240 mg, 240 mg once daily, Day 14, geom. mean
quantity kind: Cmax (ng/mL)
Express it in ng/mL; write the number only.

Task: Specify reported Cmax for the compound shown: COc1ccc2c(c1)CN(Cc1ccc(C(=O)O)cc1)CCS2.O=C(O)/C=C/C(=O)O
Output: 34900

----------
- procedure text: Phase 1 clinical trial, Part II, muscle biopsy: concentration in quadriceps muscle
- Format: in vivo, human (healthy male volunteers)
- test settings: male, human, quadriceps muscle / plasma, oral; 20 mg once daily, muscle Day 13 / plasma Day 14 at 3 hours post dose, geom. mean (geom. % CV); read-out: Kpu (unbound muscle concentration divided by plasma concentration)
quantity kind: Kp

Task: Determine from records and report Kp for COc1ccc2c(c1)CN(Cc1ccc(C(=O)O)cc1)CCS2.O=C(O)/C=C/C(=O)O [Compound I]
Output: 0.0106

----------
- procedure text: Phase 1 clinical trial, Part II multiple ascending doses over 14 days, plasma pharmacokinetics
- Format: in vivo, human (healthy male volunteers)
- test settings: male, human, plasma, oral, 120 mg, 120 mg once daily, Day 14, median; read-out: tmax
quantity kind: Tmax (h)
Write the value in h as a bare number.

Task: Give the value of Tmax reported for the following: COc1ccc2c(c1)CN(Cc1ccc(C(=O)O)cc1)CCS2.O=C(O)/C=C/C(=O)O
Output: 3.5

----------
- procedure text: Phase 1b study in RYR1-Related Myopathy patients, plasma pharmacokinetics
- Assay type: in vivo, human (RYR1-Related Myopathy patients)
- test settings: human, plasma, po, 200 mg, 200 mg oral daily for 28 days, three subjects, time 5 hr
- Description: A Phase 1b study is performed in RYR1-Related Myopathy (RYR1-RM) affected individuals. Compound I was administered in a gastro-resistant tablet according to Example 3 at daily doses. The formulation comprised 20 mg Compound I (based on the mass of 4-[(7-methoxy-2,3-dihydro-1,4-benzothiazepin-4(5H)yl)methyl]benzoic acid). The first three participants were dosed with 120 mg of Compound I (6×20 mg tablets) daily for approximately 28 days. […]
quantity kind: concentration at 5 h (ng/mL)
Report the value in ng/mL with no unit label.

Task: Dear colleague, please send me the reported concentration at 5 h for COc1ccc2c(c1)CN(Cc1ccc(C(=O)O)cc1)CCS2.O=C(O)/C=C/C(=O)O when you can.
Output: 17800

----------
- procedure text: Phase 1b study in RYR1-Related Myopathy patients, plasma pharmacokinetics
- Format: in vivo, human (RYR1-Related Myopathy patients)
- test settings: human, plasma, po, 120 mg, single oral 120 mg, Day 1; read-out: AUC0-inf, individual values
quantity kind: AUC(0-inf)

Task: Name the recorded AUC(0-inf) of the item COc1ccc2c(c1)CN(Cc1ccc(C(=O)O)cc1)CCS2.O=C(O)/C=C/C(=O)O in your answer.
Output: 212 to 290 µg·h/mL

----------
- procedure text: Phase 1b study in RYR1-Related Myopathy patients, plasma pharmacokinetics
- Assay type: in vivo, human (RYR1-Related Myopathy patients)
- test settings: human, plasma, po, 200 mg, 200 mg oral daily for 28 days, three subjects, time 1 hr
quantity kind: concentration at 1 h (ng/mL)
Numeric only. Scale: ng/mL

Task: Quickly give me recorded concentration at 1 h for COc1ccc2c(c1)CN(Cc1ccc(C(=O)O)cc1)CCS2.O=C(O)/C=C/C(=O)O
Output: 7900

----------
- procedure text: Phase 1b study in RYR1-Related Myopathy patients, plasma pharmacokinetics
- Assay type: in vivo, human (RYR1-Related Myopathy patients)
- test settings: human, plasma, po, 120 mg, 120 mg oral daily for 28 days, Day 28, n 3, arithmetic mean
quantity kind: Cmax at 28 days (ng/mL)
# unit: ng/mL | format: bare number

Task: Note down Cmax at 28 days recorded for COc1ccc2c(c1)CN(Cc1ccc(C(=O)O)cc1)CCS2.O=C(O)/C=C/C(=O)O
Output: 19300
